experiment description: Flux assay for cell permeability using Caco-2 cells
protocol conditions: human, Caco-2
Listed here are compounds together with their documented Papp B→A at 2 h.
reported metric: Papp B→A at 2 h (nm/s)

[[record]]
compound = "CC(C)(C)C(c1cc(-c2cc(F)ccc2F)cn1Cc1ccccc1)N(CC[C@H](N)C(=O)NCCNC(=O)CN1C(=O)CC(SC[C@H](N)C(=O)O)C1=O)C(=O)CO.O=C(O)C(F)(F)F (some centres unmarked) [Example M1]"
reported_metric = "Papp B→A at 2 h"
observed_measurement = 7.8

[[record]]
compound = "CC(C)(C)[C@H](c1cc(-c2cc(F)ccc2F)cn1Cc1ccccc1)N(CC[C@H](N)C(=O)NCCNC(=O)CNC(=O)CC(SC[C@H](N)C(=O)O)C(=O)O)C(=O)CO (mixture of isomers) [Example M26]"
reported_metric = "Papp B→A at 2 h"
observed_measurement = 13

